The measurements presented in this section are drawn from ChEMBL document CHEMBL1132871.

Kindly state solubility for each of the entries shown.
test: Solubility in DMSO:water(9:1); type: physicochemical; conditions: read-out: S
State the value, then name its unit.

Example entries and their recorded answers appear below.
>  <COMPOUND>
COCCOCCOCC[N+]1(C)CC23C4=C5C6=C7c8c9c%10c%11c%12c%13c%14c(c2c2c%15c%16c%17c%18c%19c(c5c5c%20c%21c%22c%23c(c8C%22C65)c%10c5c%11c6c%13c8c(c%15%14)c%16c%10c%18c%11c(c%20%19)c%21c%13c%23c5c5c%13c%11c%10c8c65)C%17C42)C%12C9C73C1COCCOCCOC.[I-] (stereo unspecified)

>  <solubility>
95 µM

$$$$
>  <COMPOUND>
COCCOCCOCC1N(C)CC23C4=C5C6=C7c8c9c%10c%11c%12c%13c%14c(c2c2c%15c%16c%17c%18c%19c(c5c5c%20c%21c%22c%23c(c8C%22C65)c%10c5c%11c6c%13c8c(c%15%14)c%16c%10c%18c%11c(c%20%19)c%21c%13c%23c5c5c%13c%11c%10c8c65)C%17C42)C%12C9C713 (stereo unspecified)

>  <solubility>
15 µM

$$$$
>  <COMPOUND>
COCCOCCOCCN1CC23C4=C5C6=C7c8c9c%10c%11c%12c%13c%14c(c2c2c%15c%16c%17c%18c%19c(c5c5c%20c%21c%22c%23c(c8C%22C65)c%10c5c%11c6c%13c8c(c%15%14)c%16c%10c%18c%11c(c%20%19)c%21c%13c%23c5c5c%13c%11c%10c8c65)C%17C42)C%12C9C73C1 (stereo unspecified)

>  <solubility>
15 µM

$$$$
>  <COMPOUND>
COCCOCCOCC1C23C4=C5C6=C7C8c9c(c%10c%11c%12c%13c%14c%15c(c4c4c%16c%17c%18c%19c%20c(c6c6c%21c%22c(c%23c9c%11c9c%23c%11c%22c%22c(c%20%21)c%19c%19c%17c%17c(c%15%16)c%14c%14c%12c9c9c%11c%22c%19c%17c%149)C68)C5C4%18)C2C%10%13)C73C[N+]1(C)C.[I-] (stereo unspecified)

>  <solubility>
15 µM

$$$$
>  <COMPOUND>
COCCOCCOCC[N+]1(C)CC23C4=C5C6=C7c8c9c%10c%11c%12c%13c%14c(c2c2c%15c%16c%17c%18c%19c(c5c5c%20c%21c%22c%23c(c8C%22C65)c%10c5c%11c6c%13c8c(c%15%14)c%16c%10c%18c%11c(c%20%19)c%21c%13c%23c5c5c%13c%11c%10c8c65)C%17C42)C%12C9C73C1.[I-] (stereo unspecified)

>  <solubility>
43 µM

$$$$

Next, consider the following compound.
// query Item COCCOCCOCCN1CC23C4=C5C6=C7c8c9c%10c%11c%12c%13c%14c(c2c2c%15c%16c%17c%18c%19c(c5c5c%20c%21c%22c%23c(c8C%22C65)c%10c5c%11c6c%13c8c(c%15%14)c%16c%10c%18c%11c(c%20%19)c%21c%13c%23c5c5c%13c%11c%10c8c65)C%17C42)C%12C9C73C1COCCOCCOC (stereo unspecified) : provide solubility
// result 30 µM
